- Test Name: yeast display, Sf9 membrane polyspecificity reagent, FACS + sequencing; frameworks hold sequencing errors
Reported Metric: polyreactivity (PSR sort gate)

>>> result("LVQLVESGGGLVQAVGSLRLSCAASGFTIYGNAMGWYRRAPGKERELVAAITWRGGSTYYADSEKGRFTISRDNAKNTVYLQMNSLKPEDTAVYYCNALKGRPVRSYLASPSYRYDYWGQGTQVTVSS")
"high polyreactivity"
>>> result("QVHLVESGGGLVQAGGSLRLSCAASGGIFDYYAMGWYRQAPGKERELVATISRGGSTYYADSVKGRFTISRDNAKNTVYLQMNSLKPEDTAVYYCAARQTRYWYRAWFVEHDYWGQGTKVTVSS")
"high polyreactivity"
